- TESTED_TARGET: Jak2 (UniProt O60674)
- Sequence (O60674 whole entry, looked up): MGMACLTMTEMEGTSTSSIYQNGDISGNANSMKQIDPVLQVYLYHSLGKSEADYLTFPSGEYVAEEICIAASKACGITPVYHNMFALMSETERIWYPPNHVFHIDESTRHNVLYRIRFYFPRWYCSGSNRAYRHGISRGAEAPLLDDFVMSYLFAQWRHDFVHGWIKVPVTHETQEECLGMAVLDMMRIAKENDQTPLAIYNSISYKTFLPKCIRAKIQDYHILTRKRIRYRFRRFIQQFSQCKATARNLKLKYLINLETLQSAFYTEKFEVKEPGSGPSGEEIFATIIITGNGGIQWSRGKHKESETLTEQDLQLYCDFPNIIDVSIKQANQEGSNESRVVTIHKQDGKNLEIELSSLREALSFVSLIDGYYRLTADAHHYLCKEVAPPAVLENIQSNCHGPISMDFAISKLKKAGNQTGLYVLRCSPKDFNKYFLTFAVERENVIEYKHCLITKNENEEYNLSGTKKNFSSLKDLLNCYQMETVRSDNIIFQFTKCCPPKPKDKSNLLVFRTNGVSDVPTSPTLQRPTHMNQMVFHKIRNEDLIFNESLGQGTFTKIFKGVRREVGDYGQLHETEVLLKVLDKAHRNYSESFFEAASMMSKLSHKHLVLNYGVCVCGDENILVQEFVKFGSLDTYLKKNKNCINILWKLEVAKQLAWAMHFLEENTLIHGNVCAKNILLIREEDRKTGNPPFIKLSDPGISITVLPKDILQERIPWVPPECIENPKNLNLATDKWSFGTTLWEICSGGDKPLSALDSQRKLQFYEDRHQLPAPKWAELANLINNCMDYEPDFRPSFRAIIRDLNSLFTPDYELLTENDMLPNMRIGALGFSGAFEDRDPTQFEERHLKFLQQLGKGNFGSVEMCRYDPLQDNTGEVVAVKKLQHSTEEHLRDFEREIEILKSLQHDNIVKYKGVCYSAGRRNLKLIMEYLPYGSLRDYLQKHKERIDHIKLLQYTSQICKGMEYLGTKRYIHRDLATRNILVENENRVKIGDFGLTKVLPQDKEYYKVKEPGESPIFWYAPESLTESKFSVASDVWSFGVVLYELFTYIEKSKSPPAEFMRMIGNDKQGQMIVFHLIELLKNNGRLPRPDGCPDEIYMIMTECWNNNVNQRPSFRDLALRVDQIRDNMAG
- PROTOCOL_DETAILS: phosphorylation enrichment, bacterial display (enrichment ratio); higher = better substrate or ligand; peptides without Tyr show the background;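 note: 11-residue human phosphosite peptides and single-mutation variants displayed on the E. coli surface, counted by deep sequencing, each peptide's frequency after selection divided by its frequency in the unselected input library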;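 note: frequency after pTyr selection over input frequency; kinase dosed for 20-30% of maximal phosphorylation in three min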
Label class 1 for high-side phosphorylation enrichment (at or above 1) and class 0 for low-side phosphorylation enrichment (below it).

{"POLYMER_SEQUENCE": "SWDKRYCEAGF [ITGA2B_Y197]", "DISCRETE_LABEL": "class 0"}
{"POLYMER_SEQUENCE": "PEQAAYQKVVA [HBB_Y131_V127E]", "DISCRETE_LABEL": "class 1"}
{"POLYMER_SEQUENCE": "ETRWKYHFEVV [GCNT3_Y267]", "DISCRETE_LABEL": "class 1"}
{"POLYMER_SEQUENCE": "AAFNKYDQERF [CDC73_Y293_R292K_YF]", "DISCRETE_LABEL": "class 0"}
{"POLYMER_SEQUENCE": "QKMFDYLKEKK [RYR2_Y3780_L3778F]", "DISCRETE_LABEL": "class 0"}
{"POLYMER_SEQUENCE": "QGIIIYKAAYF [SLC25A4_Y187_R188K]", "DISCRETE_LABEL": "class 1"}
{"POLYMER_SEQUENCE": "ANFTEYVATRW [CDKL5_Y171_YF]", "DISCRETE_LABEL": "class 0"}
{"POLYMER_SEQUENCE": "RHIEKYVDQGK [IRAK3_Y61]", "DISCRETE_LABEL": "class 0"}
{"POLYMER_SEQUENCE": "HKLSSYEFDFE [BTK_Y40_Y39S_YF]", "DISCRETE_LABEL": "class 1"}
{"POLYMER_SEQUENCE": "IIWDSYTTNKV [GNB1_Y85]", "DISCRETE_LABEL": "class 0"}
{"POLYMER_SEQUENCE": "KTVQDYLEKFY [MMP8_Y36]", "DISCRETE_LABEL": "class 1"}
{"POLYMER_SEQUENCE": "LDVGEYCVPRG [BEX1_Y43_A40V]", "DISCRETE_LABEL": "class 1"}
{"POLYMER_SEQUENCE": "FLGKGYSDGGC [MC4R_Y35_S30F]", "DISCRETE_LABEL": "class 0"}
{"POLYMER_SEQUENCE": "IEPVIDVVQRR [ANOS1_Y217_Y217D]", "DISCRETE_LABEL": "class 0"}
{"POLYMER_SEQUENCE": "VGNAAYQAGSL [STK36_Y1181_P1185S]", "DISCRETE_LABEL": "class 0"}
{"POLYMER_SEQUENCE": "KMKGDYFRSLA [YWHAG_Y130_Y133S_YF]", "DISCRETE_LABEL": "class 0"}
{"POLYMER_SEQUENCE": "LWQTIYNLEAE [TNNT2_Y251_S249T]", "DISCRETE_LABEL": "class 1"}
{"POLYMER_SEQUENCE": "GTTIHYNFMCN [TP53_Y234_C229G_YF]", "DISCRETE_LABEL": "class 1"}
{"POLYMER_SEQUENCE": "EQAERYDDMAA [YWHAG_Y20]", "DISCRETE_LABEL": "class 0"}
{"POLYMER_SEQUENCE": "FSQQVYRVNLS [FAT4_Y480]", "DISCRETE_LABEL": "class 0"}
{"POLYMER_SEQUENCE": "DPKFHYDNTAG [KDR_Y1214]", "DISCRETE_LABEL": "class 0"}
{"POLYMER_SEQUENCE": "REGAKYVSHSA [ASS1_Y113_G117S]", "DISCRETE_LABEL": "class 0"}
{"POLYMER_SEQUENCE": "QMVGMYAFSFM [AVPR2_Y124_S126F_YF]", "DISCRETE_LABEL": "class 1"}
{"POLYMER_SEQUENCE": "QLYGAYLRIHA [BSCL2_Y213]", "DISCRETE_LABEL": "class 1"}
{"POLYMER_SEQUENCE": "AVEDQYYRVDC [FHL1_Y207_C209R]", "DISCRETE_LABEL": "class 1"}
{"POLYMER_SEQUENCE": "SECCKYKIDNP [OSMR_Y689]", "DISCRETE_LABEL": "class 0"}
{"POLYMER_SEQUENCE": "TDGIAYEFRVT", "DISCRETE_LABEL": "class 1"}
{"POLYMER_SEQUENCE": "SFGMVYEGNAR [INSR_Y1038]", "DISCRETE_LABEL": "class 0"}
{"POLYMER_SEQUENCE": "GVTLLCYGRYN [ADGRD1_Y85_Y85C]", "DISCRETE_LABEL": "class 1"}
{"POLYMER_SEQUENCE": "TWSRSYRSDRL [CRYBB1_Y131_S129R]", "DISCRETE_LABEL": "class 0"}
{"POLYMER_SEQUENCE": "GYQPEYGQPAG [SYP_Y278_D277E]", "DISCRETE_LABEL": "class 0"}
{"POLYMER_SEQUENCE": "CEAMEYQESKQ [BTK_Y511_L512Q]", "DISCRETE_LABEL": "class 1"}
{"POLYMER_SEQUENCE": "EALDFYGELRT [PTEN_Y155_V158L]", "DISCRETE_LABEL": "class 1"}
{"POLYMER_SEQUENCE": "ASTDFNKRGDF [PDHA1_Y243_Y243N_YF]", "DISCRETE_LABEL": "class 0"}
{"POLYMER_SEQUENCE": "VRLTEYPCAGL", "DISCRETE_LABEL": "class 0"}
{"POLYMER_SEQUENCE": "QSKGIYFVQLE [MGAT4B_Y262_YF]", "DISCRETE_LABEL": "class 1"}
{"POLYMER_SEQUENCE": "RVDRDYVLKST [HTATIP2_Y111_A116T]", "DISCRETE_LABEL": "class 0"}
{"POLYMER_SEQUENCE": "YSTPPYLLEAA [BRIP1_Y921_S919P]", "DISCRETE_LABEL": "class 1"}
{"POLYMER_SEQUENCE": "ETAENYLGHTA [HSPA9_Y181]", "DISCRETE_LABEL": "class 0"}
{"POLYMER_SEQUENCE": "KAIMTYVPSFY [ACTN4_Y260_S262P]", "DISCRETE_LABEL": "class 0"}
{"POLYMER_SEQUENCE": "QITQVYGFYHE [PPP2CA_Y127_D131H]", "DISCRETE_LABEL": "class 1"}
{"POLYMER_SEQUENCE": "WGLRSYFETSK [MAGED2_Y448_YF]", "DISCRETE_LABEL": "class 1"}
{"POLYMER_SEQUENCE": "KFMVGYEMIAQ [GALT_Y339_L342I]", "DISCRETE_LABEL": "class 0"}
{"POLYMER_SEQUENCE": "VFSTDCFRVGG [NTRK2_Y706_Y706C_YF]", "DISCRETE_LABEL": "class 1"}
{"POLYMER_SEQUENCE": "DSNLIYSQIWS [FCRL3_Y662_P660L]", "DISCRETE_LABEL": "class 1"}
{"POLYMER_SEQUENCE": "LQTYHYHGHSM [PDHA1_Y289_R288H]", "DISCRETE_LABEL": "class 1"}
{"POLYMER_SEQUENCE": "ALEKTYNTYRS [B4GALNT2_Y538]", "DISCRETE_LABEL": "class 0"}
{"POLYMER_SEQUENCE": "NELTFYCFKKD [CD59_Y87_C89Y_YF]", "DISCRETE_LABEL": "class 1"}
{"POLYMER_SEQUENCE": "EFLRNYFTDKA [DSG2_Y775]", "DISCRETE_LABEL": "class 0"}
{"POLYMER_SEQUENCE": "VLAHKYHGGGG [HBB_Y146_A141V]", "DISCRETE_LABEL": "class 0"}
{"POLYMER_SEQUENCE": "LEGAKYVSHGA [ASS1_Y113_R108L]", "DISCRETE_LABEL": "class 0"}
{"POLYMER_SEQUENCE": "TQPSPYAVFLF [RPGRIP1_Y823_R827L_YF]", "DISCRETE_LABEL": "class 0"}
{"POLYMER_SEQUENCE": "ICFSDYVEVAD [PHACTR1_Y525_R521C]", "DISCRETE_LABEL": "class 1"}
